The following molecules have recorded Ki on Collagenase 3 (Homo sapiens).

[
  {
    "molecule": "Cc1cc(COc2ccc(C(=O)NC3COCC34C(=O)NC(=O)NC4=O)cc2)c2ccccc2n1 (stereo unspecified)",
    "result-qualifier": "=",
    "Ki [µM]": 3.53
  },
  {
    "molecule": "Cc1cc(COc2ccc(C(=O)NC3CN(S(C)(=O)=O)CC34C(=O)NC(=O)NC4=O)cc2)c2ccccc2n1 (stereo unspecified)",
    "result-qualifier": "=",
    "Ki [µM]": 3.72
  },
  {
    "molecule": "Cc1cc(COc2ccc(C(=O)NC3CN(C(=O)c4cccnc4)CC34C(=O)NC(=O)NC4=O)cc2)c2ccccc2n1 (stereo unspecified)",
    "result-qualifier": "=",
    "Ki [µM]": 1.31
  },
  {
    "molecule": "CC(=O)N1CC(NC(=O)c2ccc(OCc3cc(C)nc4ccccc34)cc2)C2(C1)C(=O)NC(=O)NC2=O (stereo unspecified)",
    "result-qualifier": "=",
    "Ki [µM]": 3.95
  },
  {
    "molecule": "Cc1cc(COc2ccc(C(=O)NC3CN(C(=O)OC(C)(C)C)CC34C(=O)NC(=O)NC4=O)cc2)c2ccccc2n1 (stereo unspecified)",
    "result-qualifier": ">",
    "Ki [µM]": 5.21
  },
  {
    "molecule": "Cc1cc(COc2ccc(C(=O)NCC3(C)C(=O)NC(=O)NC3=O)cc2)c2ccccc2n1",
    "result-qualifier": ">",
    "Ki [µM]": 5.02
  }
]

====

pKi: −log10 of the molar value.
The following compounds have recorded pKi on UniProt:P39900.
Sequence (P39900 whole entry): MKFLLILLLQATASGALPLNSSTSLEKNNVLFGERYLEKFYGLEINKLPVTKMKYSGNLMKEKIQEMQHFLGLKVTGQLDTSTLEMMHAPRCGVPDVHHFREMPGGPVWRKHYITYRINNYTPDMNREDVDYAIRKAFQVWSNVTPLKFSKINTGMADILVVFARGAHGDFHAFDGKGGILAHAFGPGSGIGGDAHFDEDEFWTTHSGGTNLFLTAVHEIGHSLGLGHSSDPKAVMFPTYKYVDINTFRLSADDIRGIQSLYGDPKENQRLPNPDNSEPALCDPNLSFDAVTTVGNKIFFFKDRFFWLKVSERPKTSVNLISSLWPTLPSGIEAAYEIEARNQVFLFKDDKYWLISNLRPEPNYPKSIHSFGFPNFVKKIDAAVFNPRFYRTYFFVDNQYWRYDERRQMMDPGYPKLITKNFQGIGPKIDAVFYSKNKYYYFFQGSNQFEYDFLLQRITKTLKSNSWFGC
metric: pKi

[
  {
    "compound": "Cc1cc(COc2ccc(C(=O)NC3CN(C(=O)C(C)(C)C)CC34C(=O)NC(=O)NC4=O)cc2)c2ccccc2n1 (stereo unspecified)",
    "metric": "pKi",
    "result": "< 5.22"
  },
  {
    "compound": "Cc1cc(COc2ccc(C(=O)NC3CN(C(=O)OC(C)(C)C)CC34C(=O)NC(=O)NC4=O)cc2)c2ccccc2n1 (stereo unspecified)",
    "metric": "pKi",
    "result": 5.99
  },
  {
    "compound": "Cc1cc(COc2ccc(C(=O)NCC3(NC(=O)OC(C)(C)C)C(=O)NC(=O)NC3=O)cc2)c2ccccc2n1",
    "metric": "pKi",
    "result": "< 5.22"
  },
  {
    "compound": "Cc1cc(COc2ccc(C(=O)NC3CN(S(C)(=O)=O)CC34C(=O)NC(=O)NC4=O)cc2)c2ccccc2n1 (stereo unspecified)",
    "metric": "pKi",
    "result": 5.89
  },
  {
    "compound": "Cc1cc(COc2ccc(C(=O)NCC3(N4CCN(C(C)C)CC4)C(=O)NC(=O)NC3=O)cc2)c2ccccc2n1",
    "metric": "pKi",
    "result": "< 5.22"
  },
  {
    "compound": "Cc1cc(COc2ccc(C(=O)NCC3(N4CCN(C)CC4)C(=O)NC(=O)NC3=O)cc2)c2ccccc2n1",
    "metric": "pKi",
    "result": "< 5.22"
  },
  {
    "compound": "CC(=O)N1CC(NC(=O)c2ccc(OCc3cc(C)nc4ccccc34)cc2)C2(C1)C(=O)NC(=O)NC2=O (stereo unspecified)",
    "metric": "pKi",
    "result": 6.24
  },
  {
    "compound": "Cc1cc(COc2ccc(C(=O)NCC3(C4CCN(C(C)C)CC4)C(=O)NC(=O)NC3=O)cc2)c2ccccc2n1",
    "metric": "pKi",
    "result": "< 5.22"
  },
  {
    "compound": "Cc1cc(COc2ccc(C(=O)NCC3(C(C)C)C(=O)NC(=O)NC3=O)cc2)c2ccccc2n1",
    "metric": "pKi",
    "result": "< 5.22"
  },
  {
    "compound": "C#CCN1CCN(C2(CNC(=O)c3ccc(OCc4cc(C)nc5ccccc45)cc3)C(=O)NC(=O)NC2=O)CC1",
    "metric": "pKi",
    "result": "< 5.22"
  },
  {
    "compound": "Cc1cc(COc2ccc(C(=O)NCC3(C4CCN(C5CCOCC5)CC4)C(=O)NC(=O)NC3=O)cc2)c2ccccc2n1",
    "metric": "pKi",
    "result": "< 5.22"
  },
  {
    "compound": "Cc1cc(COc2ccc(C(=O)NCC3(Cc4ccccc4)C(=O)NC(=O)NC3=O)cc2)c2ccccc2n1",
    "metric": "pKi",
    "result": 6.41
  },
  {
    "compound": "Cc1cc(COc2ccc(C(=O)NCC3(N4CCN(S(C)(=O)=O)CC4)C(=O)NC(=O)NC3=O)cc2)c2ccccc2n1",
    "metric": "pKi",
    "result": 5.99
  },
  {
    "compound": "Cc1cc(COc2ccc(C(=O)NCC3(C4CCN(C(=O)C(C)(C)C)CC4)C(=O)NC(=O)NC3=O)cc2)c2ccccc2n1",
    "metric": "pKi",
    "result": "< 5.22"
  },
  {
    "compound": "Cc1cc(COc2ccc(C(=O)NCC3(C4CCN(S(C)(=O)=O)CC4)C(=O)NC(=O)NC3=O)cc2)c2ccccc2n1",
    "metric": "pKi",
    "result": "< 5.22"
  },
  {
    "compound": "Cc1cc(COc2ccc(C(=O)NCC3(C4CCN(C)CC4)C(=O)NC(=O)NC3=O)cc2)c2ccccc2n1",
    "metric": "pKi",
    "result": "< 5.22"
  },
  {
    "compound": "CC(=O)N1CCN(C2(CNC(=O)c3ccc(OCc4cc(C)nc5ccccc45)cc3)C(=O)NC(=O)NC2=O)CC1",
    "metric": "pKi",
    "result": "< 5.22"
  },
  {
    "compound": "Cc1cc(COc2ccc(C(=O)NCC3(N4CCN(C(=O)c5cccnc5)CC4)C(=O)NC(=O)NC3=O)cc2)c2ccccc2n1",
    "metric": "pKi",
    "result": 5.33
  },
  {
    "compound": "Cc1cc(COc2ccc(C(=O)NC3COCC34C(=O)NC(=O)NC4=O)cc2)c2ccccc2n1 (stereo unspecified)",
    "metric": "pKi",
    "result": "< 5.39"
  },
  {
    "compound": "Cc1cc(COc2ccc(C(=O)NCC3(C)C(=O)NC(=O)NC3=O)cc2)c2ccccc2n1",
    "metric": "pKi",
    "result": "< 5.22"
  },
  {
    "compound": "Cc1cc(COc2ccc(C(=O)NC3CN(C(=O)c4cccnc4)CC34C(=O)NC(=O)NC4=O)cc2)c2ccccc2n1 (stereo unspecified)",
    "metric": "pKi",
    "result": 6.89
  },
  {
    "compound": "Cc1cc(COc2ccc(C(=O)NCC3(N4CCN(Cc5ccccc5)CC4)C(=O)NC(=O)NC3=O)cc2)c2ccccc2n1",
    "metric": "pKi",
    "result": 5.39
  },
  {
    "compound": "Cc1cc(COc2ccc(C(=O)NCC3(C4CCN(C(=O)OC(C)(C)C)CC4)C(=O)NC(=O)NC3=O)cc2)c2ccccc2n1",
    "metric": "pKi",
    "result": "< 5.22"
  },
  {
    "compound": "CCC1(CNC(=O)c2ccc(OCc3cc(C)nc4ccccc34)cc2)C(=O)NC(=O)NC1=O",
    "metric": "pKi",
    "result": 6.68
  },
  {
    "compound": "Cc1cc(COc2ccc(C(=O)NCC3(C4CCNCC4)C(=O)NC(=O)NC3=O)cc2)c2ccccc2n1",
    "metric": "pKi",
    "result": "< 5.22"
  },
  {
    "compound": "Cc1cc(COc2ccc(C(=O)NCC3(N4CCN(C(=O)C(C)(C)C)CC4)C(=O)NC(=O)NC3=O)cc2)c2ccccc2n1",
    "metric": "pKi",
    "result": 7.30
  }
]
